Value source: the Deep4Chem optical property database

- Assay Info: photoluminescence quantum yield (fraction); solvent given as SMILES
- Stated Conditions: in C1CCOC1
photoluminescence quantum yield below 0.09 gives no (0); photoluminescence quantum yield at or above it gives yes (1).

Lookup: Check if photoluminescence quantum yield >= 0.09 (inclusive). Item: `Cc1cc(C)c(B(c2ccc(-c3nc4c5ccccc5c5ccccc5c4[nH]3)cc2)c2c(C)cc(C)cc2C)c(C)c1`
Found: yes (1)

Lookup: Check this molecule for photoluminescence quantum yield at or above 0.09: `C(=C\c1ccc(N(c2ccc(/C=C/c3ccc(-c4cc(-c5ccccc5)nc(-c5ccccc5)c4)cc3)cc2)c2ccc(/C=C/c3ccc(-c4cc(-c5ccccc5)nc(-c5ccccc5)c4)cc3)cc2)cc1)/c1ccc(-c2cc(-c3ccccc3)nc(-c3ccccc3)c2)cc1`
Found: no (0)
